test system: SN12C renal; experiment: NCI tumour cell line growth inhibition, 48 h
Recorded metric: TGI (µM)
// note: answer is a bare numeric in µM

Molecule	Readout number
CCC1(O)CC(OC2CC(N(C)C)C(OC3CC(O)C(OC4OC(C)C(=O)C=C4N)C(C)O3)C(C)O2)c2c(O)c3c(c(O)c2C1C(=O)OC)C(=O)c1cccc(O)c1C3=O (stereo not given)	1.13

# context switch: different molecule, same TGI
Which TGI is reported for this molecule? CC[C@H](C)c1occ2c(O)c(C(=O)O)c(=O)cc-2c1C
81.4

###

Below, each of the compounds is paired with its reported TGI value.
tested on: HT29 colon; assay: NCI tumour cell line growth inhibition, 48 h

Which TGI is reported for this compound? CCOC(=O)C1C(=O)CC(C)(O)C(C(=O)OCC)C1c1ccc(N(C)C)cc1 (centres undefined)
> 100 µM

Next compound up: CCOC(=O)C1Cc2c(ccc(OC)c2OC)C(=O)C1N (centres undefined)
> 100 µM

Next compound up: CCCCCCCCCCCCCOC(=O)c1c(C)[nH]c(/C=C2\N=C(c3ccc[nH]3)C=C2OC)c1C
> 100 µM

Next compound up: CCc1ccc(C2=C/C(=C/c3ccc(Cl)cc3)C(=O)N2CCc2ccc(S(N)(=O)=O)cc2)cc1
4.58 µM
